# System: Fibroblast
# experiment-notes: Multiplex assay against human fibroblast
# Type: toxicity, cell-based
# condition-notes: 24 h, 1 µM, compound concentration 1 uM, replicate 2
reported-endpoint: Population Mitochondria Different-Phenotype (%)

# molecule, reported-result
records = [
    ("Cn1cc(C(=O)OCC2CCN(CCNS(C)(=O)=O)CC2)c2ccccc21", 6),
    ("CC(C)C[C@H](CO)Nc1nc(S[C@@H](C)c2ccccc2)nc2nc(N)sc12 [AZD-8797]", 3),
    ("CN1CCN2c3ccccc3Cc3ccccc3C2C1.Cl (stereo not given) [MIANSERIN HYDROCHLORIDE]", 1),
    ("COc1ccc2c(c1OCc1ccccc1)C[C@@H](C(=O)O)N(C(=O)C(c1ccccc1)c1ccccc1)C2 [OLODANRIGAN]", 7),
    ("O=C(NCCNCC(O)COc1ccc(O)cc1)N1CCOCC1.O=C(NCCNCC(O)COc1ccc(O)cc1)N1CCOCC1.O=C(O)/C=C/C(=O)O (stereo not given) [XAMOTEROL FUMARATE]", 6),
    ("CCCCC[C@H](O)/C=C/[C@H]1[C@H](O)CC(=O)[C@@H]1CCCCCCC(=O)O [ALPROSTADIL]", 8),
    ("OCCCNc1cc(-c2ccnc(Nc3cccc(Cl)c3)n2)ccn1", 10),
    ("N[C@](CC1c2ccccc2Oc2ccccc21)(C(=O)O)[C@H]1C[C@@H]1C(=O)O", 1),
    ("Nc1nc(-c2ccco2)c2cnn(Cc3ccccc3F)c2n1", 5),
    ("Cc1c(Cc2ccc3ccccc3n2)c2cc(F)ccc2n1CC(=O)O [TIMAPIPRANT]", 4),
]
